- procedure.text: small-molecule microarray binders of probe aEGFR, primary screen, biochemical, biotinylated probe, 635/667 nm fluorescence (AID 1097);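 also: probe is a biotinylated anti-EGFR antibody binding compounds printed on slides; score combines fluorescence near 667 nm and signal to noise of each spot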
- measurement.conditions: higher = more signal
property: composite z-score
Give the figure only, with no unit attached.

# annotated cases, reported composite z-score shown
O=[N+]([O-])c1ccc(C[n+]2ccc3ccc(O)cc3c2)o1
-0.0867
C=CCC(OC(C)=O)[C@@H]1[C@@H](N(Cc2cc3ccccc3o2)C(=O)Cc2ccc(F)cc2)c2cc(OCCCO)ccc2N1C(=O)c1ccc(-c2ccccc2)cc1 (some centres undefined)
-0.178
Cc1ccc([C@@H]2CC=C(C(=O)O)[C@H](c3ccccc3)N2S(=O)(=O)c2ccc(C)cc2)cc1
0.0582

Endpoint output: composite z-score of `COc1ccc(-c2ccccc2[C@@H]2N[C@H](C(=O)O)CC[C@H]2C)cc1` . Value?
0.0068

###

- procedure.text: fission yeast growth modulation, primary screen, strain 972, OD600, 24 h, no modulator (AID 1090);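 also: basal condition with compound alone and no growth modifier present; test concentration not given here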
- measurement.conditions: S. pombe 972 growth, higher = more signal, called active from +8 up or from −8 down
property: z-score
Respond numerically, and do not add a unit to the figure.

Recorded results for 2 molecules are shown here.
N#Cc1ccc(NN2C(C(O)c3ccc(I)cc3)C=CC3C(=O)N(c4ccccc4)C(=O)C32)cc1 (stereo not given)
2.19
C=CCNC(=O)[C@H]1[C@@H]2C(=O)O[C@@H](c3ccccc3)[C@@H](c3ccccc3)N2[C@@H](c2ccccc2OCCO)[C@]12C(=O)N(C(=O)OCCOC)c1ccc(C#CCC(C(=O)OC)C(=O)OC)cc12
-1.68

// lookup z-score for `CC(=O)NCCCC[C@@H]1NC(=O)[C@H]2C[C@@H](C(=O)NCCCCCCN(C)C)[C@@H](c3ccc(O)cc3)N2C1=O`
-0.566

So what does the record say about z-score for CC(C)[C@H]1NC(=O)[C@@]23C(=O)N[C@@H](Cc4ccccc4)C2[C@H](C)[C@@]2(C)O[C@H]2C3/C=C/C/C=C\CNC(=O)[C@H](C)NC1=O (stereo not given in full) ?
0.469

Record request: z-score value, item `CO[C@H]1COC(=O)[C@@H](Cc2ccccc2)NC(=O)[C@@H](C)COC(=O)CC=C[C@@H]1C`
-0.669

###

- measurement.target: Fibroblast growth factor 10 (Homo sapiens)
- procedure.text: FGF10 binders on small-molecule microarrays, primary screen, biochemical, small-molecule microarray, 635 nm fluorescence (AID 1102)
- measurement.conditions: FGF10 binding, fluorescence 635 nm, higher = more signal
property: composite z-score

Examples with answers:
COc1ccc([Si](C)(C)[C@H]2[C@H](CCO)O[C@@]3(C(=O)N(Cc4ccccc4)c4ccc(N5C(=O)c6cccc7cccc5c67)cc43)[C@@H]2C)cc1
-0.558
O=C1OCCC=C[C@H]2OC34C=CCN(Cc5ccccc5)C(=O)[C@H]3N(CCO)C(=O)[C@@H]4C12 (some centres not stated)
-0.835
COc1cc(Cc2cc3c(c(CCc4ccccc4)n2)[Si](C(C)C)(C(C)C)OC3)cc(OC)c1OC
0.367

Which composite z-score value belongs to `C[C@H]1COC(=O)[C@@H]2CCCN2C(=O)[C@@H](C)COC(=O)[C@@H]2CCCN2C1=O` ?
0.419

So what does the record say about composite z-score for `COCCOC(=O)N1C(=O)[C@@]2(c3cc(C#CCCO)ccc31)[C@H](C(=O)N1CCCCCCC1)[C@H]1C(=O)O[C@H](c3ccccc3)[C@H](c3ccccc3)N1[C@@H]2c1ccc(O)cc1` ?
0.494

For `COc1cc2c(cc1OC)CN(C(=O)[C@H]1[C@@H]3C(=O)O[C@@H](c4ccccc4)[C@@H](c4ccccc4)N3[C@@H](c3ccc(O)cc3)[C@]13C(=O)Nc1ccc(C#CC4(O)CCCCCC4)cc13)CC2` , what is its reported composite z-score?
1.4

// composite z-score lookup, key: `[N-]=[N+]=NCc1ccccc1C[C@@]1(C(=O)N2CCOCC2)N=C(c2ccc(OCCCO)cc2)O[C@@H]1c1ccccc1N=[N+]=[N-]`
1.42

Please report the recorded composite z-score for `Cc1ccc(N2C(=O)c3ccccc3[C@](C)(C(=O)O)[C@@H]2c2ccc(CO)cc2)nc1` .
-0.883

Tell me the measured composite z-score of `CCN1C(C)=C(C(=O)OC)[C@@H](c2ccccc2)N2C(=O)[C@@]3(C(=O)OC)O[C@@]12[C@@H]1C(=O)N(c2ccccc2)C(=O)[C@@H]13` , please.
1

// returns reported composite z-score for input C=CCC(OC(C)=O)[C@@H]1[C@@H](N(Cc2cccc3ccccc23)C(=O)Cc2ccc(F)cc2)c2cc(OCCCO)ccc2N1C(=O)Cc1ccc2ccccc2c1 (some centres not stated)
0.2

Need composite z-score, item `CCc1cccc(NC(=O)O[C@H]2[C@H](OC(=O)Nc3ccccc3)[C@@H](OC(=O)Nc3ccccc3)[C@@H](OC)O[C@@H]2CO)c1`
1.54
